- target or system: NRAS Q61K (Homo sapiens, UniProt P01111+P62937, Q61K)
- Sequence (P01111 whole entry Q61K, one chain of several): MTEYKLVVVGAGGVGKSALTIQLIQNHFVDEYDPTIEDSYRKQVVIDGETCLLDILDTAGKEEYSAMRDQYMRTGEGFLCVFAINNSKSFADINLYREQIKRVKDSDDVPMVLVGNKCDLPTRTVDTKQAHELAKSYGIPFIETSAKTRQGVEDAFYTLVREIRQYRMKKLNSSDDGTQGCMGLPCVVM
- protocol summary: Disruption of BRAF RBD interaction with Ras (FRET / MOA assay, with Cyclophilin A)
- Format: biochemical
- conditions: NRAS Q61K; read-out: NRAS Q61K FRET data IC50
pIC50: −log10 of the molar value.
measurement label: pIC50

Answered cases to consult:
molecule: CCn1c(-c2cccnc2[C@H](C)OC)c2c3cc(ccc31)-c1csc(n1)C[C@H](NC(=O)[C@H]1CCCO1)C(=O)N1CCC[C@H](N1)C(=O)OCC(C)(C)C2 (atropisomer, axis not shown) [Example A315]
measurement label: pIC50
recorded measurement: 6.00 to 7.00

molecule: CCn1c(-c2cccnc2[C@H](C)OC)c2c3cc(ccc31)-c1csc(n1)C[C@H](NC(=O)[C@H](C(C)C)N(C)C(=O)N1CCN(C(=O)[C@H]3CCCN3C)CC1)C(=O)N1CCC[C@H](N1)C(=O)OCC(C)(C)C2 (atropisomer, axis not shown) [Example A595]
measurement label: pIC50
recorded measurement: 7.00 to 8.00

molecule: CCn1c(-c2cccnc2[C@H](C)OC)c2c3cc(ccc31)-c1csc(n1)C[C@H](NC(=O)[C@H](C(C)C)N(C)C(=O)N1CC(C3CN(C)C3)C1)C(=O)N1CCC[C@H](N1)C(=O)OCC(C)(C)C2 (atropisomer, axis not shown) [Example A608]
measurement label: pIC50
recorded measurement: 7.00 to 8.00

Request: Data request, read-out pIC50, for C=CC(=O)N1CC[C@H](C(=O)N(C)[C@H](C(=O)N[C@H]2Cc3cc(O)cc(c3)-c3ccc4c(c3)c(c(-c3cccnc3)n4CC)CC(C)(C)COC(=O)[C@@H]3CCCN(N3)C2=O)C(C)C)C1 [Example A045]
Response: 5.00 to 6.00

Request: // returns reported pIC50 for input CCn1c(-c2cccnc2[C@H](C)OC)c2c3cc(ccc31)-c1csc(n1)C[C@H](NC(=O)[C@H](C(C)C)N(C)C(=O)N1CC3(CC3)C1)C(=O)N1CCC[C@H](N1)C(=O)OCC(C)(C)C2 (atropisomer, axis not shown) [Example A523]
Response: 7.00 to 8.00

Request: Consider the molecule shown here: CCn1c(-c2cccnc2[C@H](C)OC)c2c3cc(ccc31)-c1csc(n1)C[C@H](NC(=O)[C@H](C(C)C)N(C)C(=O)N1CCN(C(=O)CCN(C)C)CC1)C(=O)N1CCC[C@H](N1)C(=O)OCC(C)(C)C2 [Example A459] What is its recorded pIC50?
Response: 7.00 to 8.00

Request: Tell me the measured pIC50 of CCn1c(-c2cccnc2[C@H](C)OC)c2c3cc(ccc31)-c1csc(n1)C[C@H](NC(=O)[C@H](COC1CN(C(=O)C#CC(C)(C)N(C)C)C1)OC)C(=O)N1CCC[C@H](N1)C(=O)OCC(C)(C)C2 (atropisomer, axis not shown) [Example A705] , please.
Response: 5.00 to 6.00

Request: // pIC50 lookup, key: CCn1c(-c2cccnc2[C@H](C)OC)c2c3cc(ccc31)-c1csc(n1)C[C@H](NC(=O)[C@H](C(C)C)N(C)C(=O)N1CC[C@@H]1C(=O)NC)C(=O)N1CCC[C@H](N1)C(=O)OCC(C)(C)C2 [Example A281]
Response: 6.00 to 7.00

###

Each entry below carries its recorded IC50.
- target or system: NRAS Q61R (Homo sapiens, UniProt P01111+P62937, Q61R)
- Sequence (P01111 whole entry Q61R, one chain of several): as the sequence (P01111 whole entry Q61K, one chain of several) above, with K61R counted along it
- protocol summary: Disruption of BRAF RBD interaction with Ras (FRET / MOA assay, with Cyclophilin A)
- Assay type: biochemical
- conditions: NRAS Q61R; read-out: NRAS Q61R FRET data IC50

Solved cases below.
compound: CCn1c(-c2cc(N3CCN(C)CC3)cnc2[C@H](C)OC)c2c3cc(ccc31)-c1csc(n1)C[C@H](NC(=O)[C@H](C(C)C)N(C)C(=O)N1CCC13CCN(C)CC3)C(=O)N1CCC[C@H](N1)C(=O)OCC(C)(C)C2 (atropisomer, axis not shown)
IC50: 10 to 100 nM
//
compound: CCn1c(-c2cccnc2[C@H](C)OC)c2c3cc(ccc31)-c1csc(n1)C[C@H](NC(=O)[C@H](C(C)C)N(C)C(=O)N(C)[C@@H]1CCCN(C)C1)C(=O)N1CCC[C@H](N1)C(=O)OCC(C)(C)C2
IC50: 100 to 1000 nM
//
compound: CCn1c(-c2cccnc2[C@H](C)OC)c2c3cc(ccc31)-c1csc(n1)C[C@H](NC(=O)[C@H](C(C)C)N(C)C(=O)N1CCC13CN(C)C3)C(=O)N1CCC[C@H](N1)C(=O)OCC(C)(C)C2
IC50: 100 to 1000 nM

Request: Could you tell me which IC50 is on file for C=CC(=O)N1CC[C@@]2(CCN2C(=O)N(C)[C@H](C(=O)N[C@H]2Cc3nc(cs3)-c3ccc4c(c3)c(c(-c3cccnc3[C@H](C)OC)n4CC)CC(C)(C)COC(=O)C3CCCN(N3)C2=O)N(C)C)C1 (single isomer, unassigned) ?
Response: 100 to 1000 nM

###

- Test system: Capan-1 (K-Ras G12V)
- protocol summary: CellTiter-Glo cell viability assay, 5-day treatment
- Type: cell-based
- conditions: Homo sapiens, CAPAN-1, 120 h, 5-day treatment; read-out: Capan-1 Cell Viability assay data (K-Ras G12V, IC50)
pIC50: −log10 of the molar value.
# pIC50 listing for each entry below

Reference set (3 entries):
molecule: CCn1c(-c2cccnc2[C@H](C)OC)c2c3cc(ccc31)-c1cc(O)cc(c1)C[C@H](NC(=O)[C@H](C(C)C)N(C)C(=O)[C@H]1CCN(C(=O)[C@]3(C)CCCN3C)C1)C(=O)N1CCC[C@H](N1)C(=O)OCC(C)(C)C2
recorded measurement: 6.00 to 7.00
--
molecule: CCn1c(-c2cc(N3CCN(C)CC3)cnc2[C@H](C)OC)c2c3cc(ccc31)-c1csc(n1)C[C@H](NC(=O)[C@H](C(C)C)N(C)C(=O)N1CCC13CCN(C)CC3)C(=O)N1CCC[C@H](N1)C(=O)OCC(C)(C)C2 (atropisomer, axis not shown)
recorded measurement: 7.00 to 8.00
--
molecule: CCn1c(-c2cccnc2[C@H](C)OC)c2c3cc(ccc31)-c1csc(n1)C[C@H](NC(=O)[C@H](C(C)C)N(C)C(=O)N1CC[C@@]3(CCN(C)C3=O)C1)C(=O)N1CCC[C@H](N1)C(=O)OCC(C)(C)C2 (single isomer, unassigned)
recorded measurement: 6.00 to 7.00

Request: Please look up its pIC50: "CCn1c(-c2cccnc2[C@H](C)OC)c2c3cc(ccc31)-c1cc(O)cc(c1)C[C@H](NC(=O)[C@H](C(C)C)N(C)C(=O)[C@H]1CCN(C(=O)OC(C)(C)C)C1)C(=O)N1CCC[C@H](N1)C(=O)OCC(C)(C)C2"
Response: 7.00 to 8.00

###

- target or system: KRAS G12S (Homo sapiens, UniProt P01116+P62937, G12S)
- Sequence (P01116 1-169 isoform P01116-2 G12S limits assumed, one chain of several): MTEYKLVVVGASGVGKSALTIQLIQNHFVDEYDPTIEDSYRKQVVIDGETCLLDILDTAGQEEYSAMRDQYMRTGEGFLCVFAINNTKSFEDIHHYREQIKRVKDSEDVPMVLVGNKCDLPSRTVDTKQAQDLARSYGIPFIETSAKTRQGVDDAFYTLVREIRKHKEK
- protocol summary: Disruption of BRAF RBD interaction with Ras (FRET / MOA assay, with Cyclophilin A)
- Assay type: biochemical
- conditions: read-out: KRAS G12S FRET data, IC50
measurement label: IC50

Solved entries:
compound: CCn1c(-c2cccnc2[C@H](C)OC)c2c3cc(ccc31)-c1csc(n1)C[C@H](NC(=O)[C@H](C(C)C)N(C)C(=O)N1CCOCC1)C(=O)N1CCC[C@H](N1)C(=O)OCC(C)(C)C2 (atropisomer, axis not shown)
recorded measurement: 100 to 1000 nM

compound: CCn1c(-c2cccnc2[C@H](C)OC)c2c3cc(ccc31)-c1cc(O)cc(c1)C[C@H](NC(=O)[C@H](C1CCCC1)N(C)C(=O)N1CCS(=O)(=NC)CC1)C(=O)N1CCC[C@H](N1)C(=O)OCC(C)(C)C2
recorded measurement: 100 to 1000 nM

compound: CCn1c(-c2cccnc2[C@H](C)OC)c2c3cc(ccc31)-c1csc(n1)C[C@H](NC(=O)[C@H](C(C)C)N(C)C(=O)N1CCC(C(=O)C(F)(F)F)CC1)C(=O)N1CCC[C@H](N1)C(=O)OCC(C)(C)C2
recorded measurement: 10 to 100 nM

Request: Which IC50 is reported for this compound? CCn1c(-c2cccnc2[C@H](C)OC)c2c3cc(ccc31)-c1csc(n1)C[C@H](NC(=O)[C@H](C(C)C)N(C)C(=O)N1CC(N(C)C3CC3)C1)C(=O)N1CCC[C@H](N1)C(=O)OCC(C)(C)C2 (atropisomer, axis not shown)
Response: 100 to 1000 nM

###

We begin with a simple list: items and their reported pIC50.
- target or system: KRAS G12C (Homo sapiens, UniProt P01116+P62937, G12C)
- Sequence (P01116 1-169 isoform P01116-2 G12C limits assumed): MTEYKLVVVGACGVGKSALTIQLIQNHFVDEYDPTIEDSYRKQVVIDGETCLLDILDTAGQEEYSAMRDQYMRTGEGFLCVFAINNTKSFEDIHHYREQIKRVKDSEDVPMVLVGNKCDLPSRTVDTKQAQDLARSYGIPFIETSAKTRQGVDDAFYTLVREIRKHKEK
- Sequence (P62937 whole entry): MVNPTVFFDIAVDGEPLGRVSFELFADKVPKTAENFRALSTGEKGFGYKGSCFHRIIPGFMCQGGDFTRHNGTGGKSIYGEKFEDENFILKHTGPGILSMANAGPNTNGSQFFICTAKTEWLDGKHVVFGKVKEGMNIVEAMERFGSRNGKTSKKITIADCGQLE
- protocol summary: Ras-Raf disruption / FRET / MOA assay (BRAF RBD)
- Assay type: biochemical
- conditions: Ras-Raf disruption, with Cyclophilin A; read-out: KRAS G12C FRET data IC50
pIC50: −log10 of the molar value.

compound: CCn1c(-c2cccnc2[C@H](C)OC)c2c3cc(ccc31)-c1csc(n1)C[C@H](NC(=O)[C@H](C(C)C)N(C)C(=O)N1CCN(C(=O)[C@H]3CN3)C[C@H]1C)C(=O)N1CCC[C@H](N1)C(=O)OCC(C)(C)C2
target or system: KRAS G12C (Homo sapiens, UniProt P01116+P62937, G12C)
pIC50: 7.00 to 8.00

Request: Which pIC50 value is on record for CCn1c(-c2cccnc2[C@H](C)OC)c2c3cc(ccc31)-c1cc(O)cc(c1)C[C@H](NC(=O)[C@H](C(C)C)N(C)C(=O)C1CN(S(=O)(=O)[C@@H]3CN3C)C1)C(=O)N1CCC[C@H](N1)C(=O)OCC(C)(C)C2 (single isomer, unassigned) ?
Response: 6.00 to 7.00
